System: HIV-IIIb IN T174I DE
Assay: Antiviral assay in MT4 cells, HIV-IIIb IN T174I DE virus (from dose escalation passaging)
Format: cell-based, HIV-1
Details: Human immunodeficiency virus 1, IIIB, MT4, 120 h, read-out: T174I DE EC50, MT4 cells, HIV-IIIb IN T174I DE (dose escalation), 5 days, CellTiter-Glo
So I've got a bunch of compounds here, and I need their pEC50 values.
Please report pEC50 as the negative decimal logarithm of the molar concentration, giving only the number.

GET /values?item= COCCOC(=O)N1CCC(c2nn(C)c3ccc(-c4nc5cc(C)c([C@H](OC(C)(C)C)C(=O)O)c(-c6ccc(Cl)cc6)c5s4)cc23)C1 (stereo partly shown) &system= HIV-IIIb IN T174I DE returns pEC50: 6.08

GET /values?item= COCCN1CCC(c2nn(C)c3ccc(-c4nc5cc(C)c([C@H](OC(C)(C)C)C(=O)O)c(-c6ccc(Cl)cc6)c5s4)cc23)C1 (single isomer, unassigned) [Compound 69] &system= HIV-IIIb IN T174I DE returns pEC50: 5.94

GET /values?item= Cc1cc2nc(-c3ccc4c(n3)c(C3CCN(C5CC5)CC3)nn4C)sc2c(-c2ccc(Cl)cc2)c1[C@H](OC(C)(C)C)C(=O)O &system= HIV-IIIb IN T174I DE returns pEC50: 6.07

GET /values?item= Cc1cc2nc(-c3ccc4c(c3)c(N3CCC(C)(C(=O)N(C)C)CC3)nn4C)sc2c(-c2ccc(Cl)cc2)c1[C@H](OC(C)(C)C)C(=O)O &system= HIV-IIIb IN T174I DE returns pEC50: 6.02
